Reported IC50 values for the following molecules.
target: N-glycosylase/DNA lyase (Homo sapiens, UniProt O15527); assay: Fluorescence-based Assay; conditions: pH 7.5; 37 °C
Sequence (O15527 whole entry): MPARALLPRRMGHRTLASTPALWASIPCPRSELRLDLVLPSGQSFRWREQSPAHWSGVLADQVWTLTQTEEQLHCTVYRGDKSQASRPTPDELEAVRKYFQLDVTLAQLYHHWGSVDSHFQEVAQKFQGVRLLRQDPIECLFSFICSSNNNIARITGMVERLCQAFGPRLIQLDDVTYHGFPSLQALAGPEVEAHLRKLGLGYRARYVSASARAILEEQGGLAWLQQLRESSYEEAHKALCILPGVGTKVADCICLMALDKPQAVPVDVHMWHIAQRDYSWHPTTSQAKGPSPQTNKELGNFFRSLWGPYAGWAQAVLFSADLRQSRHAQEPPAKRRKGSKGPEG
Give the value in µM but do not write µM after it.

>  <molecule>
COc1cc(C)c(S(=O)(=O)n2cc(C)nc2-c2ccccc2)cc1C

>  <experimental_result>
4.15

$$$$
>  <molecule>
C=CCC/C(C)=N\NC(=O)c1cccc(Br)c1

>  <experimental_result>
3.78

$$$$
>  <molecule>
Cc1cc(OCC(=O)NN)cc(C)c1Cl

>  <experimental_result>
1.53

$$$$
>  <molecule>
NNC(=O)COc1cccc2ccccc12

>  <experimental_result>
1.56

$$$$
>  <molecule>
O=C(NN=C1CCCCC1)c1cc2ccccc2cc1O

>  <experimental_result>
0.29

$$$$
>  <molecule>
NNC(=O)c1ccc(Br)cc1

>  <experimental_result>
0.39

$$$$

Request: // map CC(Oc1cccc(Cl)c1)C(=O)NN (configuration not stated) to recorded IC50 (system: N-glycosylase/DNA lyase (Homo sapiens, UniProt O15527))
Result: 3.38

Request: Now the molecule CCCC/C(C)=N\NC(=O)c1cccc(Br)c1
Result: 2.13

Request: Now the molecule C/C(=N\NC(=O)c1cc2ccccc2cc1O)c1ccc2c(c1)OCO2
Result: 7.17

Request: Now the molecule CCCN1CCC(=NNC(=O)c2ccc(Cl)cc2Cl)CC1
Result: 4.56

Request: Now the molecule NNC(=O)c1sc2ccccc2c1Cl
Result: 0.3

Request: Now the molecule NNC(=O)c1sc2cccc(Cl)c2c1Cl
Result: 0.35
